Target: MMP-13CD (catalytic domain of collagenase 3) (Homo sapiens, UniProt P45452)
Assay: Thiopeptolide hydrolysis assay, MMP-13
Conditions: MMP13 IC50 μM, Table IVb
attribute-measured: IC50 (µM)
I only need the number, in µM, no unit after it.

Provide IC50 value for the following compound: Cn1c(=O)n(Cc2ccccc2)c(=O)c2cc(C(=O)CSc3ccncc3)ccc21
3.4

Provide IC50 value for the following compound: COc1ccc(CNC(=O)c2ccc3c(c2)c(=O)n(Cc2ccc(-c4nn[nH]n4)cc2)c(=O)n3C)cc1
0.0009

Provide IC50 value for the following compound: Cn1c(=O)n(Cc2cccc(F)c2)c(=O)c2cc(C(=O)NCc3ccncc3)ccc21
0.017

Provide IC50 value for the following compound: COC(=O)c1ccc(Cn2c(=O)c3cc(C(=O)NCc4ccc(OC)cc4)ccc3n(C)c2=O)o1
0.29

Provide IC50 value for the following compound: COC(=O)c1ccc(Cn2c(=O)c3cc(C(=O)NCc4ccc5nonc5c4)ccc3n(C)c2=O)cc1
0.035

Provide IC50 value for the following compound: COc1ccc(CNC(=O)c2ccc3c(c2)c(=O)n(Cc2ccc4nonc4c2)c(=O)n3C)cc1
0.018

Provide IC50 value for the following compound: CCOC(=O)Cn1c(=O)c2cc(C(=O)NCc3ccc(OC)cc3)ccc2n(C)c1=O
0.65

====

Target: MMP-13CD (catalytic domain of collagenase 3) (Homo sapiens, UniProt P45452)
Assay: Thiopeptolide hydrolysis assay, MMP-13
Conditions: MMP13 IC50 (μM), Table 1b
IC50 by entry:
I only need the number, in µM, no unit after it.

Provide IC50 value for the following molecule: COC(=O)c1ccc(Cn2c(=O)c(C)c3sc(C(=O)NCc4ccc(F)cc4)cn3c2=O)cc1Cl
0.24

====

pIC50 by entry:
Biological target: MMP-1FL (full-length interstitial collagenase) (Homo sapiens, UniProt P03956)
Sequence (P03956 100-469): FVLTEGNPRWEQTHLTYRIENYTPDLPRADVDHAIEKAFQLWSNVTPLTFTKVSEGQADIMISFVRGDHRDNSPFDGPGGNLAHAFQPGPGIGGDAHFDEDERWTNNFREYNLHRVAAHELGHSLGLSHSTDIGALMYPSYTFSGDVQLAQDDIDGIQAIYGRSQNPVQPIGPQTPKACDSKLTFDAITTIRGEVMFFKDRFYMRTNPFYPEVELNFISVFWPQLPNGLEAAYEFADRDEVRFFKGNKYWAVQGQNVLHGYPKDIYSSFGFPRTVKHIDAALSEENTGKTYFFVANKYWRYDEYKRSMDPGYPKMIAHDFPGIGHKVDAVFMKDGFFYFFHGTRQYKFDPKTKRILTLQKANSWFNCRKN
Assay: Thiopeptolide hydrolysis assay, MMP-1
Type: biochemical
Conditions: Table 1b; read-out: MMP01 IC50
pIC50: −log10 of the molar value. Structures can show the parent of a compound that is named as a salt.

| compound | attribute-measured | data-value |
| --- | --- | --- |
| COc1ccc(CNC(=O)c2cn3c(=O)n(Cc4ccccc4)c(=O)c(C=O)c3s2)cc1 | pIC50 | < 4.00 |
| Cc1c(=O)n(Cc2ccccc2)c(=O)n2cc(C(=O)NCc3cccc(F)c3)sc12 | pIC50 | < 4.52 |
| Cc1c(=O)n(Cc2ccccc2)c(=O)n2cc(C(=O)NCc3ccccc3)sc12 | pIC50 | < 4.00 |
| O=C(NCc1ccc(Cl)c(Cl)c1)c1cn2c(=O)n(Cc3ccc(Cl)cc3)c(=O)cc2s1 | pIC50 | < 4.52 |

Provide pIC50 value for the following compound: O=C(NCc1ccccc1)c1cn2c(=O)n(Cc3ccncc3)c(=O)cc2s1 [hydrochloride]
< 4.00

Provide pIC50 value for the following compound: COC(=O)c1ccc(Cn2c(=O)c(C)c3sc(C(=O)NCc4ccc(F)cc4)cn3c2=O)cc1
< 4.00

Provide pIC50 value for the following compound: COC(=O)c1ccc(Cn2c(=O)c(C)c3sc(C(=O)NCc4cccc(F)c4)cn3c2=O)cc1
< 4.52

Provide pIC50 value for the following compound: Cc1c(=O)n(Cc2ccc(C#N)cc2)c(=O)n2cc(C(=O)NCc3ccncc3)sc12 [hydrochloride]
< 4.52

====

Molecular target: MMP-3CD (catalytic domain of stromelysin) (Homo sapiens, UniProt P08254)
Sequence (P08254 100-272 limits assumed): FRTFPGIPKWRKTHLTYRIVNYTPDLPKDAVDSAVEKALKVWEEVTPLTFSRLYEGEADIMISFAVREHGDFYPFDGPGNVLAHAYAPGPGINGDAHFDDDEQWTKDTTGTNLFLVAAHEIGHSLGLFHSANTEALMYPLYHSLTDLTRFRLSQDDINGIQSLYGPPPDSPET
Experiment: Thiopeptolide hydrolysis assay, MMP-3;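 also: inhibition of thiopeptolide substrate (100 µM) cleavage by the MMP-3 catalytic domain, detected with DTNB at pH 6.0 with CaCl2, hydrolysis compared against runs lacking inhibitor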
Format: biochemical
Settings: Table 1b; read-out: MMP03 IC50
Structures can show the parent of a compound that is named as a salt.
attribute-measured: pIC50
Please report pIC50 as the negative decimal logarithm of the molar concentration, giving only the number.

Before answering, review these 3 worked examples.
| molecule | pIC50 |
| --- | --- |
| COc1cccc(CNC(=O)c2cn3c(=O)n(Cc4ccccc4)c(=O)c(C)c3s2)c1 | 4.66 |
| COC(=O)c1ccc(Cn2c(=O)c(C)c3sc(C(=O)NCc4cccc(F)c4)cn3c2=O)cc1 | 4.72 |
| COc1ccc(CNC(=O)c2cn3c(=O)n(Cc4ccccc4)c(=O)c(C)c3s2)cc1 | 4.80 |

Now examine the next entry.
GET pIC50 | system: MMP-3CD (catalytic domain of stromelysin) (Homo sapiens, UniProt P08254) | item: COc1ccc(CNC(=O)c2cn3c(=O)n(Cc4ccccc4)c(=O)c(C)c3s2)cn1 [hydrochloride]
4.69

====

log10(IC50) by entry:
Molecular target: MMP-13CD (catalytic domain of collagenase 3) (Homo sapiens, UniProt P45452)
Assay: biochemical
Please be aware that the numbers have been log10-transformed from IC50 in nM.

Before answering, review these 3 worked examples.
| molecule | log10(IC50) |
| --- | --- |
| O=C(NCc1ccc2c(c1)OCO2)c1ccc2[nH]c(=O)n(Cc3ccncc3)c(=O)c2c1 | 1.71 |
| O=C(NCc1ccc2c(c1)OCO2)c1ccc2c(c1)c(=O)n(Cc1ccccc1)c(=O)n2CC1CC1 | 2.20 |
| Cn1c(=O)n(Cc2cccs2)c(=O)c2cc(C(=O)NCc3ccccc3)ccc21 | 1.98 |

Provide log10(IC50) value for the following molecule: O=C(NCc1cccnc1)c1ccc2[nH]c(=O)n(Cc3ccccc3)c(=O)c2c1
2.56

Provide log10(IC50) value for the following molecule: COc1ccc(CNC(=O)c2ccc3c(c2)c(=O)n(Cc2ccc(OC)cc2)c(=O)n3C)cc1 [Synthesis Example 29]
1.00

Provide log10(IC50) value for the following molecule: Cn1c(=O)n(Cc2ccccc2)c(=O)c2cc(C(=O)OCc3ccc4c(c3)OCO4)ccc21 [Synthesis Example 46]
0.40

Provide log10(IC50) value for the following molecule: O=C(OCc1ccccc1)c1cnc2[nH]c(=O)n(Cc3ccccc3)c(=O)c2c1
1.98

Provide log10(IC50) value for the following molecule: Cn1c(=O)n(CCc2ccccc2)c(=O)c2cc(C(=O)NCc3ccc4c(c3)OCO4)ccc21
2.85

Provide log10(IC50) value for the following molecule: Cn1c(=O)n(Cc2ccccc2)c(=O)c2cc(C(=O)OCc3ccncc3)ccc21 [Synthesis Example 44]
0.60

====

IC50 by entry:
Target: MMP-13CD (catalytic domain of collagenase 3) (Homo sapiens, UniProt P45452)
Assay: Thiopeptolide hydrolysis assay, MMP-13;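 also: inhibition of enzymatic thiopeptolide substrate cleavage (100 µM) in pH 6.0 MES buffer with CaCl2 and DTNB, comparing hydrolysis with versus without inhibitor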
Settings: MMP13 IC50 μM, Table IVb
I only need the number, in µM, no unit after it.

Before answering, review these 3 worked examples.
| molecule-smiles | IC50, µM |
| --- | --- |
| COc1ccc(CNC(=O)c2ccc3c(c2)c(=O)n(Cc2cccc(C#N)c2)c(=O)n3C)cc1 | 0.027 |
| COc1ccc(CNC(=O)c2ccc3c(c2)c(=O)n(Cc2ccc(C(=O)O)c(O)c2)c(=O)n3C)cc1 | 0.0016 |
| Cn1c(=O)n(Cc2ccc(F)c(F)c2)c(=O)c2cc(C(=O)NCc3ccncc3)ccc21 | 0.032 |

Now examine the next entry.
Provide IC50 value for the following molecule: COC(=O)c1ccccc1-c1ccc(Cn2c(=O)c3cc(C(=O)NCc4ccc(OC)cc4)ccc3n(C)c2=O)cc1
0.084

====

pIC50 by entry:
Biological target: MMP-13CD (catalytic domain of collagenase 3) (Homo sapiens)
Test: biochemical
Please report pIC50 as the negative decimal logarithm of the molar concentration, giving only the number.

Before answering, review these 5 worked examples.
| molecule | data-value |
| --- | --- |
| O=C(NCc1ccccc1)c1ccc2[nH]c(=O)n(Cc3ccccc3)c(=O)c2c1 [Synthesis Example 22] | 6.71 |
| Cn1c(=O)n(Cc2cccs2)c(=O)c2cc(C(=O)NCc3ccc4c(c3)OCO4)ccc21 [Synthesis Example 31] | 8.05 |
| CCn1c(=O)n(Cc2ccccc2)c(=O)c2cc(C(=O)NCc3ccc4c(c3)OCO4)ccc21 [Synthesis Example 36] | 7.59 |
| O=C(NCc1ccccc1)c1ccc2[nH]c(=O)n(Cc3cccs3)c(=O)c2c1 | 6.52 |
| Cn1c(=O)n(Cc2ccc(Cl)cc2)c(=O)c2cc(C(=O)NCc3ccc4c(c3)OCO4)ccc21 [Synthesis Example 33] | 8.05 |

Provide pIC50 value for the following molecule: O=C(OCc1ccc2c(c1)OCO2)c1ccc2[nH]c(=O)n(Cc3ccccc3)c(=O)c2c1 [Synthesis Example 45]
8.15

Provide pIC50 value for the following molecule: COc1ccc(CNC(=O)c2ccc3c(c2)c(=O)n(Cc2ccccc2)c(=O)n3C)cc1 [Synthesis Example 26]
7.92

Provide pIC50 value for the following molecule: COc1ccc(Cn2c(=O)[nH]c3ccc(C(=O)NCc4ccc5c(c4)OCO5)cc3c2=O)cc1 [Synthesis Example 27]
7.82
